Tested on: OCI-AML2;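 note: after 48 h exposure read by CellTiter-Glo luminescence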
Test Name: cell viability relative to vehicle control; higher = less cytotoxic
Condition Label: 10 µM; SRSF2 genotype: P95H/wt
Where a name gives a salt, the structure may show the parent alone.
Reported values of cell viability for individual entries
Measure Name: cell viability (%)

>>> val("O=C(O)CCNc1cc(N2CCc3ccccc3CC2)nc(-c2ccccn2)n1")
106
>>> val("O=c1[nH]nc2c3c(cccc13)N=C(CN1Cc3ccccc3C1)N2")
69.7
>>> val("COCCNC(=O)Nc1ccc2nc(-c3cccs3)c(-c3cccs3)nc2c1")
91.5
>>> val("CCOCCn1c(N2CCCN(C)CC2)nc2ccccc21")
114
>>> val("CC(C)CN(CC(=O)N1CCN(CC(OCc2ccc3ccccc3c2)c2ccc(Cl)cc2Cl)CC1)CC(C)C (centres undefined)")
36
>>> val("C[C@@H]1COCCN1c1cc(-c2ccnn2C)c2ccnc(-c3ccn[nH]3)c2n1")
15
>>> val("N[C@@H]1CCCN(c2c(/C=C3\\SC(=O)NC3=O)cccc2-c2ccccc2)C1")
78.6
>>> val("Oc1ccc(/C=C/c2cc(O)cc(O)c2)cc1")
67.2
>>> val("COc1cc2c(Oc3ccc4[nH]c(C)cc4c3F)ncnc2cc1OCCCN1CCCC1")
9.24
>>> val("CCOC(=O)c1ccc(N)cc1")
91.4
>>> val("C=C1C[C@@]23CC[C@H]4[C@@](C)(CCC[C@@]4(C)C(=O)O[C@@H]4O[C@H](CO)[C@@H](O)[C@H](O)[C@H]4O)[C@@H]2CC[C@]1(O[C@@H]1O[C@H](CO)[C@@H](O)[C@H](O)[C@H]1O)C3 [Rubusoside]")
104
>>> val("c1ccc2c(CCNc3ccc(Nc4ccncc4)cc3)c[nH]c2c1")
0.66
>>> val("NS(=O)(=O)c1cc2c(cc1Cl)N=CNS2(=O)=O [Chlorothiazide]")
93.7
>>> val("Nc1[nH]cnc2ncnc1-2 [Adenine sulfate]")
102
>>> val("COCCNc1cc(NC(=O)N2CCCc3cc(CN4CCN(C)CC4=O)c(C=O)nc32)ncc1C#N")
112
>>> val("CC#CCn1c(N2CCC[C@@H](N)C2)nc2c1c(=O)n(Cc1nc(C)c3ccccc3n1)c(=O)n2C")
110
>>> val("CC(O)C(O)c1cnc2nc(N)[nH]c(=O)c2n1 (centres undefined)")
104
>>> val("Cc1c(C)c2c(c(C)c1O)CCC(C)(CCCC(C)CCCC(C)CCCC(C)C)O2 (centres undefined)")
106
>>> val("O=C(NCCN1CCOCC1)c1ccc(Cl)cc1")
105
>>> val("CC/C(=C(\\c1ccc(O)cc1)c1ccc(OCCN(C)C)cc1)c1ccccc1 [4-Hydroxytamoxifen]")
22.6
>>> val("Cn1c(=O)c(F)c(Nc2ccc(I)cc2F)c2c(=O)n(C[C@@H](O)CO)cnc21")
47.5
>>> val("CC1OC(OC2C(CO)OC(OCC3OC(OC(=O)C45CCC(C)(C)CC4C4=CCC6C7(C)CCC(OC8OCC(O)C(O)C8OC8OC(C)C(O)C(O)C8O)C(C)(CO)C7CCC6(C)C4(C)CC5)C(O)C(O)C3O)C(O)C2O)C(O)C(O)C1O (centres undefined) [Hederacoside C]")
93.5
>>> val("C=C1[C@H](CO)[C@@H](O)C[C@@H]1n1cnc2c(=O)[nH]c(N)nc21 [Entecavir hydrate]")
87.7
>>> val("N#CC(c1ccc(Cl)cc1)c1c(Cl)cc(-n2ncc(=O)[nH]c2=O)cc1Cl (centres undefined)")
91.3
>>> val("O=C1NC(=O)C(=Cc2ccc(-c3ccc(F)cc3)o2)S1 (stereo in doubt)")
94.6
>>> val("CNC(=O)c1ccc(N2C(=S)N(c3ccc(C#N)c(C(F)(F)F)c3)C(=O)C2(C)C)cc1F [MDV3100 (Enzalutamide)]")
83.3
>>> val("CC[C@H](C)n1cc(C)c2c(C(=O)NCc3c(C)cc(C)[nH]c3=O)cc(-c3ccc(N4CCNCC4)nc3)cc21")
68
>>> val("CNS(=O)(=O)CCc1ccc2[nH]cc(C3CCN(C)CC3)c2c1 [Naratriptan HCl]")
102
>>> val("Oc1nc(-c2ccc(C(F)(F)F)cc2)nc2c1CSCC2")
94.6
>>> val("COc1ccc(C[C@H](N)C(=O)N[C@H]2[C@@H](O)[C@H](n3cnc4c(N(C)C)ncnc43)O[C@@H]2CO)cc1 [Puromycin 2HCl]")
0.26
>>> val("CCCCC(CC)COC(=O)C(C#N)=C(c1ccccc1)c1ccccc1 (centres undefined)")
98.4
>>> val("CC(=O)OCC(CCn1cnc2cnc(N)nc21)COC(C)=O")
94.7
>>> val("CCN(CC)Cc1ccc2cc(COC(=O)Nc3ccc(C(=O)NO)cc3)ccc2c1")
1.72
>>> val("O=C(c1ccccc1)c1ccc2nc(NC(=O)c3csc(C4CCN(c5ncnc6ccsc56)CC4)n3)[nH]c2c1")
26.2
